Catalogue of IC50 readings, one per entry.
Assay type: binding, human
setupConditions: Table II; HEK 293 cell membranes; 125I-AGRP 1.10 nM; read-out: hMC3 IC50 (nM) 125I-AGRP
Square brackets hold non-standard residues; d marks the D form. Ends that are not written are not given here. Abu = CC[C@H](N)C(=O)O
assayMetric: IC50

{"substance": "AC[Abu]DP[Abu]AS[Abu]QCRFFRSACSCRVL (cysteine pairing not given here) [SEQ ID NO:16]", "assayMetric": "IC50", "valueObserved": "280 nM"}
{"substance": "C[Abu]DPCAS[Abu]Q[Abu]RFFRSA[Abu]SCRVLSLNC (cysteine pairing not given here) [SEQ ID NO:18]", "assayMetric": "IC50", "valueObserved": "> 1000 nM"}
{"substance": "HESCLGQQVPC[Abu]DP[Abu]ATCY[Abu]RFFNAF[Abu]YCRKL (cysteine pairing not given here) [SEQ ID NO:5]", "assayMetric": "IC50", "valueObserved": "377 nM"}
{"substance": "RNSCKPPAPA[Abu][Abu]DP[Abu]ASCQCRFFRSACS[Abu]RVL (cysteine pairing not given here) [SEQ ID NO:14]", "assayMetric": "IC50", "valueObserved": "900 nM"}
{"substance": "[Abu][Abu]DPCAT[Abu]YCRFFNAFCY[Abu]RKLGTAMNPCSRT (cysteine pairing not given here) [SEQ ID NO:9]", "assayMetric": "IC50", "valueObserved": "73 nM"}
{"substance": "C[Abu]DPCAT[Abu]Y[Abu]RFFNAF[Abu]YCRKLGTAMNPCSRT (cysteine pairing not given here) [SEQ ID NO:11]", "assayMetric": "IC50", "valueObserved": "800 nM"}

* * *

testedOn: human melanocortin-3 (MC-3) receptors (Homo sapiens, UniProt P41968)
Construct: expressed in transfected cells; membrane fraction used
Sequence (P41968 whole entry): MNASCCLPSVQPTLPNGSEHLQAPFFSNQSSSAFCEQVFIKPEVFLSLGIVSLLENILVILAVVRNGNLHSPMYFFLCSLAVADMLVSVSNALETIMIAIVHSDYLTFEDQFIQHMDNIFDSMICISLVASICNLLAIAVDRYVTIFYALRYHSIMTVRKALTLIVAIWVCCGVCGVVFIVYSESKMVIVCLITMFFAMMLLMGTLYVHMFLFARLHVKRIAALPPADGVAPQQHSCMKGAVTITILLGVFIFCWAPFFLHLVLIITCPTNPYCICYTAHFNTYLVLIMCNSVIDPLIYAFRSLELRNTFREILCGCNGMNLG
experimentalProtocol: Melanocortin receptor binding assay, 125I-AGRP competition, MC-3
setupConditions: Table II; HEK 293 cell membranes; 125I-AGRP 1.10 nM; read-out: hMC3 IC50 (nM) 125I-AGRP
Square brackets hold non-standard residues; d marks the D form. Ends that are not written are not given here. Abu = CC[C@H](N)C(=O)O

{"substance": "C[Abu]DPCAT[Abu]YCRFFNAFCYCRKLGTAMNPCSRT (cysteine pairing not given here) [SEQ ID NO:8]", "testedOn": "human melanocortin-3 (MC-3) receptors (Homo sapiens, UniProt P41968)", "IC50": "400 nM"}
{"substance": "C[Abu]DPCAT[Abu]Y[Abu]RFFNAF[Abu]YCRKLGTAMNPCSRT (cysteine pairing not given here) [SEQ ID NO:11]", "testedOn": "human melanocortin-3 (MC-3) receptors (Homo sapiens, UniProt P41968)", "IC50": "> 1000 nM"}
{"substance": "RNSCKPPAPA[Abu][Abu]DP[Abu]ASCQCRFFRSACS[Abu]RVL (cysteine pairing not given here) [SEQ ID NO:14]", "testedOn": "human melanocortin-3 (MC-3) receptors (Homo sapiens, UniProt P41968)", "IC50": "> 1000 nM"}
{"substance": "HESCLGQQVPC[Abu]DP[Abu]ATCYCRFFNAFCYCRKL (cysteine pairing not given here) [SEQ ID NO:2]", "testedOn": "human melanocortin-3 (MC-3) receptors (Homo sapiens, UniProt P41968)", "IC50": "850 nM"}
{"substance": "[Abu][Abu]DPCAS[Abu]QCRFFRSACS[Abu]RVLSLNC (cysteine pairing not given here) [SEQ ID NO:17]", "testedOn": "human melanocortin-3 (MC-3) receptors (Homo sapiens, UniProt P41968)", "IC50": "> 1000 nM"}
{"substance": "C[Abu]DPCAS[Abu]Q[Abu]RFFRSA[Abu]SCRVLSLNC (cysteine pairing not given here) [SEQ ID NO:18]", "testedOn": "human melanocortin-3 (MC-3) receptors (Homo sapiens, UniProt P41968)", "IC50": "> 1000 nM"}

* * *

Type: binding, human
setupConditions: Table II; HEK 293 cell membranes; 125I-AGRP 1.10 nM; read-out: hMC3 IC50 (nM) 125I-AGRP
Square brackets hold non-standard residues; d marks the D form. Ends that are not written are not given here. Abu = CC[C@H](N)C(=O)O
Catalogue of IC50 readings, one per entry.

{"substance": "RNSCKPPAPAC[Abu]DP[Abu]ASCQCRFFRSACSCRVL (cysteine pairing not given here) [SEQ ID NO:13]", "prefixOperator": "=", "IC50 (nM)": 60}
{"substance": "[Abu][Abu]DPCAS[Abu]QCRFFRSACS[Abu]RVLSLNC (cysteine pairing not given here) [SEQ ID NO:17]", "prefixOperator": ">", "IC50 (nM)": 1000}
{"substance": "RNS[Abu]KPPAPAC[Abu]DP[Abu]AS[Abu]QCRFFRSACSCRVL (cysteine pairing not given here) [SEQ ID NO:15]", "prefixOperator": "=", "IC50 (nM)": 45}
{"substance": "Cys-Abu-Asp-Pro-Abu-Ala-Thr-Abu-Tyr-Cys-Arg-Phe-Phe-Asn-Ala-Phe-Cys-Tyr-Cys-Arg-Lys-Leu-Gly-Thr-Ala-Met-Asn-Pro-Abu-Ser-Arg-Thr [SEQ ID NO:10]", "prefixOperator": "=", "IC50 (nM)": 15}
{"substance": "HESCLGQQVP[Abu][Abu]DP[Abu]ATCYCRFFNAFCY[Abu]RKL (cysteine pairing not given here) [SEQ ID NO:3]", "prefixOperator": "=", "IC50 (nM)": 160}
